// each record: one item and its pIC50 for human HDAC2 (Homo sapiens)
The meaning of pIC50 here: minus log10 of the concentration in molar units.

Entry CN1CC(C(=O)N[C@@H](COCCCC(=O)c2ccon2)c2[nH]c(-c3ccc(F)cc3)nc2Cl)C1 [Compound 16] ; pIC50 = 7.25

Entry CN1CC(C(=O)N[C@@H](COCCCC(=O)c2ccon2)c2ncc(-c3ccccc3F)[nH]2)C1 [Compound 15] ; pIC50 = 7.50

Entry Cc1ccc2cc(-c3cnc([C@H](CSCCCC(=O)c4ncco4)NC(=O)[C@H]4CC45CCN(C)CC5)[nH]3)ccc2n1 [Compound 21] ; pIC50 = 8.54

Entry CNC(=O)C(=O)CCCOC[C@H](NC(=O)C12CCN(CC1)CC2)c1ncc(-c2cc3ccccc3nc2OC)[nH]1 [Compound 9] ; pIC50 = 8.82

Entry COc1nc2ccccc2cc1-c1cnc([C@H](COCCCC(=O)c2ncco2)NC(=O)CN(C)C)[nH]1 [Compound 13] ; pIC50 = 7.84

Entry CCC(=O)CCCOC[C@H](NC(=O)C12CCN(CC1)CC2)c1ncc(-c2cc3ccccc3nc2OC)[nH]1 [Compound 6] ; pIC50 = 6.03

Entry COc1nc2ccccc2cc1-c1cnc([C@H](COCCCC(=O)c2ccon2)NC(=O)CN(C)C)[nH]1 [Compound 14] ; pIC50 = 8.49
